Here, each record is paired with measured IC50 data.
Target: recombinant human LTA4 hydrolase (rhLTA4H) (Homo sapiens)
Sequence (P09960 1-611): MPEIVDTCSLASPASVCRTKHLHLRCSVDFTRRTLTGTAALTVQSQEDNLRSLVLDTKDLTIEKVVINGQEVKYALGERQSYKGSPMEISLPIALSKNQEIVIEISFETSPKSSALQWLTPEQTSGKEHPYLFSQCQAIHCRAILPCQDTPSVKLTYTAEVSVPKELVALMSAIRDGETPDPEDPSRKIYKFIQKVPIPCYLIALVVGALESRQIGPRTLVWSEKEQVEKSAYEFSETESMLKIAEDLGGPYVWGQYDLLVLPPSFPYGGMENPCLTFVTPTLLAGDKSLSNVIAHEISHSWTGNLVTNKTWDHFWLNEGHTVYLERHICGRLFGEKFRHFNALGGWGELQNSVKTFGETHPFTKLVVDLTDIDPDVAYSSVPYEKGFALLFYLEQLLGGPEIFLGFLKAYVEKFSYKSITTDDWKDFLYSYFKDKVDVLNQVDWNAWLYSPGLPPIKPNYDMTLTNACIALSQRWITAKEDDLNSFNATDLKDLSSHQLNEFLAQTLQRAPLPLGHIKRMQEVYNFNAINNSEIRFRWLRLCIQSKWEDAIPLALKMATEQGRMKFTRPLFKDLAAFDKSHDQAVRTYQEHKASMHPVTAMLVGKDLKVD
Experiment: Recombinant human LTA4 hydrolase assay for LTA4 hydrolase inhibitor activity;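 further: enzyme expressed in Sf-9 insect cells, compound preincubated 10 min with enzyme, 10 min reaction at room temperature, uninhibited reaction as positive control, enzyme-free blank as negative control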
Details: LTA4 substrate, LTB4 by immunoassay, average of one to three determinations
Where a name gives a salt, the structure may show the parent alone.
Give the number; nM is assumed, so skip it.

• O=C(C1CCN(CCOc2ccc(Oc3nc4ccccc4s3)cc2)CC1)N1CCN(CCO)CC1 [Example 195] = 58

Entry OCC1CCCCN1CCOc1ccc(Oc2nc3ccccc3s2)cc1 (stereo not drawn) [Example 263] : reported IC50 = ?
5

Can you check c1ccc2sc(Oc3ccc(OCCn4cnnn4)cc3)nc2c1 [Example 224] next?
14

Can you check CCN(CCO)Cc1ccc(Oc2nc3ccccc3s2)cc1 [Example 287] next?
28

Can you check O=C(O)CN1CCN(CCOc2ccc(Oc3nc4ccccc4s3)cc2)CC1 [Example 163] next?
9

Can you check NC1CCC1C(=O)NCC1CCN(Cc2ccc(Oc3nc4ccccc4s3)cc2)CC1 (stereo not drawn) [Example 285, dihydrochloride] next?
76

* * *

tested on: neutrophil influx (myeloperoxidase, MPO); assay: Murine arachidonic acid-induced inflammation model: neutrophil influx (myeloperoxidase activity in ear biopsies); assay type: in vivo, female Balb/c mice; conditions: Mus musculus, 30 mg/kg oral gavage 60 min before topical arachidonic acid to ear, ear biopsies after 3 h, vs animals without inhibitor, read-out: % Inh. MPO
Here, each record is paired with measured inhibition in vivo at 30 mg/kg data.
Give the number; % is assumed, so skip it.

Worked cases, inhibition in vivo at 30 mg/kg given:
• O=C(O)CCN(CCc1ccc(Oc2nc3ccccc3s2)cc1)CC1CC1 [Example 180] = 87
• c1ccc2sc(Oc3ccc(OCCn4nnnc4C4CCNCC4)cc3)nc2c1 [Example 206] = 76
• O=C1C[C@@H](O)CN1C1CCN(Cc2ccc(Oc3nc4ccccc4s3)cc2)CC1 [Example 446] = 43
• O=C(O)C1CCN(Cc2ccc(Oc3nc4ccccc4s3)cc2)CC1 [Example 250] = 94
• OC1CCN(CCOc2ccc(Oc3nc4ccccc4o3)cc2)CC1 [Example 14] = 56

Entry O=C(O)C1CCN(CCc2ccc(Oc3nc4ccccc4s3)cc2)CC1 [Example 150] : reported inhibition in vivo at 30 mg/kg = ?
91

Can you check O=C1C[C@H](O)CN1C1CCN(CCc2ccc(Oc3nc4ccccc4s3)cc2)CC1 [Example 336] next?
0

Can you check c1ccc2oc(Oc3ccc(OCCN4CCCCC4)cc3)nc2c1 [Example 11] next?
95
